- test.target: T1, recombinant human LAG3 Fc Chimera Protein (R&D Systems, 2319-L3) (human, UniProt P18627 23-450)
- T1 construct: Bought reagent
- T1 sequence (looked up): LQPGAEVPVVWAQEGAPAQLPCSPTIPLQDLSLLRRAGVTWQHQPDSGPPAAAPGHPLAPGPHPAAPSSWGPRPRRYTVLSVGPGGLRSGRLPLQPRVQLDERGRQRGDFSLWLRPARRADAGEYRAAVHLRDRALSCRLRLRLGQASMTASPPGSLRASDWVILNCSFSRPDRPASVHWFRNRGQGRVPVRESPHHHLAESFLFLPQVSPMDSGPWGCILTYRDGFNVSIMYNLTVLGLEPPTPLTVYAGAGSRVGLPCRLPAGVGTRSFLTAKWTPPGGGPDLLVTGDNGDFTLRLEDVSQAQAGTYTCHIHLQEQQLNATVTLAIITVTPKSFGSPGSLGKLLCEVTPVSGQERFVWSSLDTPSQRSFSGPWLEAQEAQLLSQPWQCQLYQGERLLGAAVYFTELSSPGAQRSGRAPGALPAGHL
- procedure.summary: ELISA, plate coated with human LAG3 Fc chimera
reported.property: OD max (OD)
One number for each entry, in OD.

Using the record for bivalent P11A2 aVH-Fc (Fc fusion) EVQLVESGGGLVQPGGSLRLSCAASSFNIKDTYIGWVRRAPGKGTELVAEIACHEGTTRYADSVKGRFTISCDTSKNTAYLQMNSLRAEDTAVYYCANTEYDDIFDYWGQGTTVTVSSGGGGSGGGGSDKTHTCPPCPAPEAAGGPSVFLFPPKPKDTLMISRTPEVTCVVVDVSHEDPEVKFNWYVDGVEVHNAKTKPREEQYNSTYRVVSVLTVLHQDWLNGKEYKCKVSNKALGAPIEKTISKAKGQPREPQVYTLPPSRDELTKNQVSLTCLVKGFYPSDIAVEWESNGQPENNYKTTPPVLDSDGSFFLYSKLTVDKSRWQQGNVFSCSVMHEALHNHYTQKSLSLSPGK , report its OD max.
1.3
